Catalogue of pEC50 values
test system: Doxorubicin treated human iPSC-derived cardiomyocytes; test: iPSC-CM protection by myricetin analogs (Table 1); type: cell-based; settings: Homo sapiens, Cardiomyocyte, approximate; read-out: EC50 for cardioprotection
pEC50: −log10 of the molar value.

>>> readout_value("O=c1c(O)c(-c2cc(O)c(O)c(O)c2)oc2cc(O)cc(O)c12 [Compound 1, 3,5,7,3′,4′,5′-hexahydroxyflavone]")
"4.70 to 5.00"

Consider the additional compound presented here.
For record O=c1c(O)c(-c2cc(O)c(O)c(O)c2)oc2cc(O)ccc12 [Compound 2, 3,7,3′,4′,5′-pentahydroxyflavone] the listed pEC50 is 4.70 to 5.00

====

Catalogue of EC50 values
test system: Human iPSC-derived cardiomyocytes; experiment: cells; type: cell-based; settings: Cardiomyocyte, 0.5 μM of Doxorubicin, 72 hours, read-out: EC50 for rescue from DOX-induced cell death
Quick note: give the figure in µM, leave out the unit.

>>> readout_value("O=C1c2c(O)cc(O)cc2O[C@H](c2cc(O)c(O)c(O)c2)[C@H]1O [dihydromyricetin]")
14

Consider the additional molecule presented here.
For record O=c1c(O)c(-c2cc(O)c(O)c(O)c2)oc2cc(O)cc(O)c12 [Compound 1, 3,5,7,3′,4′,5′-hexahydroxyflavone] the listed EC50 is 7.5
